Data provenance is the RepoRT retention time repository (doi:10.1007/s00216-021-03828-0).

- protocol: RP, Merck Supelco Ascentis Express C18, 100 × 2.1 mm, 2 µm, 40 °C, 0.4 mL/min, estimated dead time 0.55 min; A: water + 0.1% formic acid, pH 3; B: acetonitrile + 0.1% formic acid, pH 3; gradient (min/%B) 0/5 2/5 17/99.9 20/99.9
- runParameters: stereoisomer not certain
Structures can show the parent of a compound that is named as a salt.
Flag rule - LC retention time less than 4 min flags T; the remaining entries get F.

Consider NCC(O)c1ccccc1 (stereo unspecified) . Does its LC retention time lie strictly below 4 min?
T

Consider Cn1cnc2c1c(=O)[nH]c(=O)n2C . Does its LC retention time lie strictly below 4 min?
T

Consider CC(=O)N1CCCC1C(=O)O (stereo unspecified) . Does its LC retention time lie strictly below 4 min?
T

Consider O=C(O)Cc1cccc(O)c1 [3-HYDROXYPHENYLACETATE] . Does its LC retention time lie strictly below 4 min?
F

Consider CCC(C)C(N)C(=O)O (stereo unspecified) . Does its LC retention time lie strictly below 4 min?
T

Consider O=C(O)CNC(=O)c1ccccc1 [HIPPURATE] . Does its LC retention time lie strictly below 4 min?
T

Consider CC(CCCC(C)(C)O)C1CCC2C3CC=C4CC(O)CCC4(C)C3CCC12C (stereo unspecified) [25-HYDROXYCHOLESTEROL] . Does its LC retention time lie strictly below 4 min?
F

Consider CC12CCC(=O)C=C1CCC1C2C(=O)CC2(C)C1CCC2(O)C(=O)CO (stereo unspecified) . Does its LC retention time lie strictly below 4 min?
F

Consider CC1NC(=O)NC1CCCCCC(=O)O (stereo unspecified) . Does its LC retention time lie strictly below 4 min?
F

Consider CCOC(=O)Cc1c[nH]c2ccccc12 [ETHYL 3-INDOLEACETATE] . Does its LC retention time lie strictly below 4 min?
F

Consider O=c1ccn(C2CC(O)C(CO)O2)c(=O)[nH]1 (stereo unspecified) . Does its LC retention time lie strictly below 4 min?
T

Consider CCCCC(N)C(=O)O (stereo unspecified) . Does its LC retention time lie strictly below 4 min?
T

Consider CC(=O)NC(CC(C)C)C(=O)O (stereo unspecified) . Does its LC retention time lie strictly below 4 min?
F

Consider CCCCCCCCCCCC(=O)O [LAURATE] . Does its LC retention time lie strictly below 4 min?
F

Consider CC(=O)NC(Cc1ccccc1)C(=O)O (stereo unspecified) . Does its LC retention time lie strictly below 4 min?
F

Consider CCCCCCCCCCCCCCCCC(=O)O [HEPTADECANOATE] . Does its LC retention time lie strictly below 4 min?
F

Consider Cc1cn(C2CC(O)C(CO)O2)c(=O)[nH]c1=O (stereo unspecified) . Does its LC retention time lie strictly below 4 min?
T

Consider CC(=O)C1CCC2C3CC=C4CC(OS(=O)(=O)O)CCC4(C)C3CCC12C (stereo unspecified) [PREGNENOLONE SULFATE] . Does its LC retention time lie strictly below 4 min?
F

Consider Nc1ccccc1S(=O)(=O)O [ANILINE-2-SULFONATE] . Does its LC retention time lie strictly below 4 min?
T

Consider O=C(O)C=Cc1ccc(O)cc1 [4-COUMARATE] . Does its LC retention time lie strictly below 4 min?
F

Consider Cc1cc2nc3[nH]c(=O)[nH]c(=O)c3nc2cc1C . Does its LC retention time lie strictly below 4 min?
F

Consider CC(C)=CCCC(C)=CCCC(C)=CCCC=C(C)CCC=C(C)CCC=C(C)C . Does its LC retention time lie strictly below 4 min?
F

Consider CC(O)(CC(=O)O)C(=O)O (stereo unspecified) [CITRAMALATE] . Does its LC retention time lie strictly below 4 min?
T

Consider O=c1[nH]c(=O)c2ncn(C3OC(CO)C(O)C3O)c2[nH]1 (stereo unspecified) . Does its LC retention time lie strictly below 4 min?
T

Consider Nc1nc2c(ncn2C2OC(CO)C(O)C2O)c(=O)[nH]1 (stereo unspecified) . Does its LC retention time lie strictly below 4 min?
T

Consider COc1cc(CCN)ccc1O . Does its LC retention time lie strictly below 4 min?
T

Consider CSCC1OC(n2cnc3c(N)ncnc32)C(O)C1O (stereo unspecified) . Does its LC retention time lie strictly below 4 min?
T

Consider O=C(O)/C=C/c1ccccc1 [TRANS-CINNAMATE] . Does its LC retention time lie strictly below 4 min?
F

Consider CC(=CC(=O)O)C(=O)O [2-METHYLMALEATE] . Does its LC retention time lie strictly below 4 min?
T

Consider O=C1CCCCO1 . Does its LC retention time lie strictly below 4 min?
T

Consider O=C(O)Cc1ccccc1O [2-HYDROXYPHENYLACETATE] . Does its LC retention time lie strictly below 4 min?
T

Consider CC(=O)NC(CS)C(=O)O (stereo unspecified) . Does its LC retention time lie strictly below 4 min?
T

Consider O=C(O)C=CC(=O)O [MALEATE] . Does its LC retention time lie strictly below 4 min?
T

Consider O=C(O)Cc1c[nH]c2ccccc12 [INDOLE-3-ACETATE] . Does its LC retention time lie strictly below 4 min?
F

---

- protocol: RP, Merck Supelco Ascentis Express C18, 100 × 2.1 mm, 2 µm, 40 °C, 0.2 mL/min, estimated dead time 1.1 min; A: water + 0.1% formic acid, pH 3; B: acetonitrile + 0.1% formic acid, pH 3; gradient (min/%B) 0/5 2/5 17/99.9 20/99.9
- runParameters: stereoisomer not certain
Flag rule - LC retention time less than 10 min flags label 1; the remaining entries get label 0.

Consider CC(=O)OCC(=O)C1(O)CCC2C3CCC4=CC(=O)CCC4(C)C3C(O)CC21C (stereo not given) [CORTISOL 21-ACETATE] . Does its LC retention time lie strictly below 10 min?
label 1

Consider O=C(O)CCCCCCCCC(=O)O [SEBACATE] . Does its LC retention time lie strictly below 10 min?
label 1

Consider CCCCCCCCCCCCCCCC(=O)O [PALMITATE] . Does its LC retention time lie strictly below 10 min?
label 0

Consider O=C(O)C(O)Cc1ccc(O)cc1 (stereo not given) [HYDROXYPHENYLLACTATE] . Does its LC retention time lie strictly below 10 min?
label 1

---

- protocol: RP, Merck Supelco Ascentis Express C18, 100 × 2.1 mm, 2 µm, 40 °C, 0.4 mL/min, estimated dead time 0.55 min; A: water + 0.1% formic acid, pH 3; B: acetonitrile + 0.1% formic acid, pH 3; gradient (min/%B) 0/5 2/5 17/99.9 20/99.9
- runParameters: stereoisomer not certain
reportedMetric: log10(LC retention time) (log10 of the value in min)
Scale: log10; quantity: LC retention time; unit before log: min

Quick note, log10(LC retention time) for O=C(O)CCCCCC(=O)O [6-CARBOXYHEXANOATE] landed at 0.56

Quick note, log10(LC retention time) for CCCCC(CC)COC(=O)c1ccccc1C(=O)OCC(CC)CCCC (stereo not given) [BIS(2-ETHYLHEXYL)PHTHALATE] landed at 1.23

Quick note, log10(LC retention time) for O=C(O)c1cc(=O)c2cccc(O)c2[nH]1 [XANTHURENATE] landed at 0.36

Quick note, log10(LC retention time) for N[C@@H](Cc1cc(I)c(Oc2ccc(O)cc2)c(I)c1)C(=O)O [3,5-DIIODO-L-THYRONINE] landed at 0.78

Quick note, log10(LC retention time) for O=C(O)c1ccc2ccccc2c1O [1-HYDROXY-2-NAPHTHOATE] landed at 0.94

Quick note, log10(LC retention time) for O=C(O)CCCC(=O)C(=O)O [OXOADIPATE] landed at -0.18

Quick note, log10(LC retention time) for NC(=O)Cc1c[nH]c2ccccc12 [INDOLE-3-ACETAMIDE] landed at 0.63

Quick note, log10(LC retention time) for NC(=O)c1ccccc1O [SALICYLAMIDE] landed at 0.61

Quick note, log10(LC retention time) for O=C(O)c1cc(O)ccc1O [2,5-DIHYDROXYBENZOATE] landed at 0.42

Quick note, log10(LC retention time) for CCCCCCC=CCCCCCCCC(=O)[O-] [PALMITOLEATE] landed at 1.16

Quick note, log10(LC retention time) for CC(C)=CCNc1ncnc2nc[nH]c12 [N6-(DELTA2-ISOPENTENYL)-ADENINE] landed at 0.63

Quick note, log10(LC retention time) for CC=CC=CC(=O)[O-] [SORBATE] landed at 0.72

Quick note, log10(LC retention time) for NC(=O)CCCCC1CCSS1 (stereo not given) [LIPOAMIDE] landed at 0.78

Quick note, log10(LC retention time) for O=C(O)C(=O)Cc1c[nH]c2ccccc12 [INDOLE-3-PYRUVATE] landed at 0.74

Quick note, log10(LC retention time) for CCCCCCCCCCCCCCCC(=O)O [PALMITATE] landed at 1.20

---

I'd be grateful if you could share measured log10(LC retention time) for these entries.
- protocol: RP, Merck Supelco Ascentis Express C18, 100 × 2.1 mm, 2 µm, 39 °C, 0.3 mL/min, estimated dead time 0.73 min; A: water + 0.1% formic acid, pH 3; B: acetonitrile + 0.1% formic acid, pH 3; gradient (min/%B) 0/5 2/5 17/99.9 20/99.9
- runParameters: stereoisomer not certain
Scale: log10; quantity: LC retention time; unit before log: min

Quick note, log10(LC retention time) for CCC(C(=O)O)C(=O)O [ETHYLMALONATE] landed at 0.31

Quick note, log10(LC retention time) for CC(=O)Oc1ccccc1 [PHENYL ACETATE] landed at 0.65

Quick note, log10(LC retention time) for CC=CC=CC(=O)[O-] [SORBATE] landed at 0.77

Quick note, log10(LC retention time) for CCCCCCCCCCCCCCCC(=O)O [PALMITATE] landed at 1.22

Quick note, log10(LC retention time) for O=C(O)C(O)Cc1ccc(O)cc1 (stereo not drawn) [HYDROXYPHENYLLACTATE] landed at 0.65

Quick note, log10(LC retention time) for O=C(O)Cc1ccc(O)cc1 [P-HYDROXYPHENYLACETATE] landed at 0.60

Quick note, log10(LC retention time) for CCCCCCCCCCCC(=O)OC(CC(=O)[O-])C[N+](C)(C)C (stereo not drawn) landed at 0.99

Quick note, log10(LC retention time) for O=C(O)CCc1ccccc1O [3-(2-HYDROXYPHENYL)PROPANOATE] landed at 0.76

Quick note, log10(LC retention time) for NC(=O)Cc1c[nH]c2ccccc12 [INDOLE-3-ACETAMIDE] landed at 0.69

Quick note, log10(LC retention time) for O=C([O-])Cc1ccccc1 [PHENYLACETATE] landed at 0.65

Quick note, log10(LC retention time) for CCCCCCCCCCCCCC(=O)O [MYRISTATE] landed at 1.18

Quick note, log10(LC retention time) for CC(C)=CCCC(C)C1CCC2C3CC=C4CC(O)CCC4(C)C3CCC12C (stereo not drawn) landed at 1.18

Quick note, log10(LC retention time) for CC(=O)OCC(=O)C1CCC2C3CCC4=CC(=O)CCC4(C)C3CCC12C (stereo not drawn) [DEOXYCORTICOSTERONE ACETATE] landed at 1.05

Quick note, log10(LC retention time) for CC(O)(CC(=O)O)CC(=O)O [3-HYDROXYMETHYLGLUTARATE] landed at 0.03

Quick note, log10(LC retention time) for O=C(O)Cc1c[nH]c2ccccc12 [INDOLE-3-ACETATE] landed at 0.79

Quick note, log10(LC retention time) for Cc1ccc(O)c(O)c1 landed at 0.21

Quick note, log10(LC retention time) for O=C(O)Cc1ccc(O)c(O)c1 [3,4-DIHYDROXYPHENYLACETATE] landed at 0.43

Quick note, log10(LC retention time) for Cc1ncc(CO)c(C(=O)O)c1O [4-PYRIDOXATE] landed at 0.01

Quick note, log10(LC retention time) for NC(=O)c1ccccc1O [SALICYLAMIDE] landed at 0.67

Quick note, log10(LC retention time) for N[C@@H](Cc1cc(I)c(Oc2ccc(O)cc2)c(I)c1)C(=O)O landed at 0.81

Quick note, log10(LC retention time) for CC(CCC(=O)NCC(=O)O)C1CCC2C3C(O)CC4CC(O)CCC4(C)C3CCC12C (stereo not drawn) [GLYCOCHENODEOXYCHOLATE] landed at 0.98

Quick note, log10(LC retention time) for CC(CCC(=O)NCC(=O)O)C1CCC2C3C(O)CC4CC(O)CCC4(C)C3CC(O)C12C (stereo not drawn) [GLYCOCHOLATE] landed at 0.93

Quick note, log10(LC retention time) for O=C(O)c1cccc(O)c1 [3-HYDROXYBENZOATE] landed at 0.63
